Numbers sourced from paper PMC4336329.

Biological target: human ether-à-go-go-related gene (hERG) potassium channel (human);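 also: peak tail current of the secondary pulse compared with the same well before compound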
Sequence (Q12809 whole entry, looked up): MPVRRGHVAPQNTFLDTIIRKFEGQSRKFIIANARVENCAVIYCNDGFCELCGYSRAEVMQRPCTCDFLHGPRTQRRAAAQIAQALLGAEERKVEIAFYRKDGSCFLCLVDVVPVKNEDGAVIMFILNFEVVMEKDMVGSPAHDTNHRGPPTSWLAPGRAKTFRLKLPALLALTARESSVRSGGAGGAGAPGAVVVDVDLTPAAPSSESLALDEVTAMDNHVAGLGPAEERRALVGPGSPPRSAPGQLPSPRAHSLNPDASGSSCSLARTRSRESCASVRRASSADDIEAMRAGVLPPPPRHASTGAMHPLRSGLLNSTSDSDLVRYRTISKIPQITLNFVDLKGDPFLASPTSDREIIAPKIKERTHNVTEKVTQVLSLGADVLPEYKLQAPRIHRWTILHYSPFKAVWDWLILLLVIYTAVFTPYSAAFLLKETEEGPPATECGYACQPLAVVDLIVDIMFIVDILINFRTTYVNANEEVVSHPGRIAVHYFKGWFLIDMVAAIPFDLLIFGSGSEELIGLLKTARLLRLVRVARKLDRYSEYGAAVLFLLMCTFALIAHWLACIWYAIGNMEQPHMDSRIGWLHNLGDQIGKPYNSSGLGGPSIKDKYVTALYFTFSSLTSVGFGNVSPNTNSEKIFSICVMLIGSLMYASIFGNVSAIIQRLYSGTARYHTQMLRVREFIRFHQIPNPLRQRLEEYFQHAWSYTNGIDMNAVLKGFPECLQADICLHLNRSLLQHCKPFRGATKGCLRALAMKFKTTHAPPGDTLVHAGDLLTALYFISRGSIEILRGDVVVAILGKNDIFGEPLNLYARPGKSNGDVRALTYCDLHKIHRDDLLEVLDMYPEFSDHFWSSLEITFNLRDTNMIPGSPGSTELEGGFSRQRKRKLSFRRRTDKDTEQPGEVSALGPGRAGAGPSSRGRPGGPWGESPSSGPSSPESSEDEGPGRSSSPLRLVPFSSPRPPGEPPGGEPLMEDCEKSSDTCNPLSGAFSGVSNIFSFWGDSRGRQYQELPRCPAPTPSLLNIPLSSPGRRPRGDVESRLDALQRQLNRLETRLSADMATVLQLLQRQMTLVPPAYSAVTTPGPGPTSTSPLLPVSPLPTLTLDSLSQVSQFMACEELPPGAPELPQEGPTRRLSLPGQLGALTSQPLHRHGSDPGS
Experiment: primary screen, population patch clamp on CHO cells stably expressing hERG; higher = less effect of the substance
Hit rate of the full screen: of about 310,000 compounds, about 14,000 (4.5%) showed an effect of 50% or more. The effect is printed as a negative number. This excerpt belongs to a sample that is enriched for strong results.
Criterion: hERG current change (%, negative = inhibition) at 10uM meeting or surpassing -30%. Met: TRUE. Not met: FALSE.

Answered examples (3):
> print(dat)
                                   molecule                             system.tested  assigned.category
1  CCOc1ccc2nc(/N=C/c3nc(-c4ccccc4)oc3O)sc2c1  human ether-à-go-go-related gene (hERG) potassium channel (human)               TRUE
2     COc1cccc(NC(=O)c2ccc(OC(F)(F)F)cc2)c1  human ether-à-go-go-related gene (hERG) potassium channel (human)               TRUE
3  O=C(c1ccccc1F)N1CCN(c2ccc([N+](=O)[O-])c(NCC3CCCO3)c2)CC1 (centres unmarked)  human ether-à-go-go-related gene (hERG) potassium channel (human)              FALSE

Request: Given N=c1c2c3c(sc2ncn1CCN1CCOCC1)CCCC3 , state whether its hERG current change (%, negative = inhibition) at 10uM is at least -30%.
Response: TRUE

Request: Please indicate if the recorded hERG current change (%, negative = inhibition) at 10uM for Cc1ccc(C(=O)N2CCCC(N3CCN(c4cccc(C(F)(F)F)c4)CC3)C2)s1 (centres unmarked) meets or exceeds -30%.
Response: FALSE

Request: Test whether the molecule CCCNc1nc2c(c(=O)n(C)c(=O)n2C)n1Cc1ccc(F)cc1 records hERG current change (%, negative = inhibition) at 10uM of -30% or higher.
Response: TRUE

Request: Record O=C(Nc1ccccc1)c1ccc(NCC2CCCO2)c([N+](=O)[O-])c1 (centres unmarked) ; criterion: hERG current change (%, negative = inhibition) at 10uM no lower than -30%. Met?
Response: TRUE

Request: Does the reported hERG current change (%, negative = inhibition) at 10uM for COc1ccc2cnn(-c3ccc(OC(F)(F)F)cc3)c(=O)c2c1OC fall at or above the -30% mark?
Response: TRUE
